target: hNTS1 (Homo sapiens); construct: expressed in transfected cells; host or cells: CHO-K1; assay: Radioligand competition binding with [3H]NT, membranes of CHO-K1 cells expressing hNTS1; settings: read-out: hNTS1 Geometric Mean ∀ SEM (equilibrium dissociation constant Kd)
Sequence (P30989 whole entry): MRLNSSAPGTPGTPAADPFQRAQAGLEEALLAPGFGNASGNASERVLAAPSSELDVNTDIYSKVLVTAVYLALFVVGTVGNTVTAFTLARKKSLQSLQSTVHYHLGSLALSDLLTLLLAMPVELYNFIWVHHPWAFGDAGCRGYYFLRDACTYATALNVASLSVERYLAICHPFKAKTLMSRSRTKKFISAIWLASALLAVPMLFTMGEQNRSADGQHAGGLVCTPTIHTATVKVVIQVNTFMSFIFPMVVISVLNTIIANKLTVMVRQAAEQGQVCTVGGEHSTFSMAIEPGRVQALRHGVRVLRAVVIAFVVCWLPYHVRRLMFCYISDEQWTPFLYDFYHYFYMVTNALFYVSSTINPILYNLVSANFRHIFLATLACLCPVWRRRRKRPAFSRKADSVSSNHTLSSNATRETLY
Where no end group is shown, it is not given here.
recordedMetric: Kd
Note to self: number, then unit, no commentary.

INPUT: Quote Kd reported for KRPYIL [NT17, [L-Lys^8]NT(8-13)] please.
OUTPUT: 0.25 nM

###

This section presents compounds with their documented hNTS2 Selectivity values.
target: hNTS2 (Homo sapiens); construct: expressed in transfected cells; host or cells: CHO-K1; test: Radioligand competition binding with [3H]NT, membranes of CHO-K1 cells expressing hNTS2; details: Table 2; hNTS2 over hNTS1
Where a SMILES comes first, the peptide text is derived from it. [ ]: non-standard residue; d: D form. 1Nal = N[C@@H](Cc1cccc2ccccc12)C(=O)O; pGlu = O=C1CC[C@@H](C(=O)O)N1; Orn = NCCC[C@H](N)C(=O)O
Answer with a bare number; do not write a unit.

INPUT: Quote hNTS2 Selectivity reported for CC[C@H](C)[C@H](NC(=O)[C@H](Cc1ccc(O)cc1)NC(=O)[C@@H]1CCCN1C(=O)[C@H](CCCN)NC(=O)[C@@H](N)CCCNC(=N)N)C(=O)N[C@@H](CC(C)C)C(=O)O [NT23, [L-Orn^9]NT(8-13)] (H-R[Orn]PYIL-OH; N-terminus and C-terminus assumed) please.
OUTPUT: 0.6

INPUT: Quote hNTS2 Selectivity reported for CC[C@H](C)[C@H](NC(=O)[C@H](Cc1cccc2ccccc12)NC(=O)[C@@H]1CCCN1C(=O)[C@H](CCCNC(=N)N)NC(=O)[C@H](CCCNC(=N)N)NC(=O)[C@@H]1CCCN1C(=O)[C@H](CCCCN)NC(=O)[C@H](CC(N)=O)NC(=O)[C@H](CCC(=O)O)NC(=O)[C@H](Cc1ccc(O)cc1)NC(=O)[C@H](CC(C)C)NC(=O)[C@@H]1CCC(=O)N1)C(=O)N[C@@H](CC(C)C)C(=O)O [NT62, [L-3,1-Nal^11]NT(1-13)] ([pGlu]LYENKPRRP[1Nal]IL-OH; C-terminus assumed) please.
OUTPUT: 0.6

***
INPUT: Quote hNTS2 Selectivity reported for CC[C@H](C)[C@H](NC(=O)[C@H](Cc1ccc(O)cc1)NC(=O)[C@@H]1CCCN1C(=O)[C@H](CCCN)NC(=O)[C@@H](N)CCCN)C(=O)N[C@@H](CC(C)C)C(=O)O [NT25, [L-Orn^8,L-Orn^9]NT(8-13)] please.
OUTPUT: 0.8

###

biological target: hNTS2 (Homo sapiens, UniProt O95665); construct: expressed in transfected cells; host or cells: CHO-K1; experiment: Radioligand competition binding with [3H]NT, membranes of CHO-K1 cells expressing hNTS2; details: Table 2; read-out: hNTS2 Geometric Mean ∀ SEM (equilibrium dissociation constant Kd)
Sequence (O95665 whole entry): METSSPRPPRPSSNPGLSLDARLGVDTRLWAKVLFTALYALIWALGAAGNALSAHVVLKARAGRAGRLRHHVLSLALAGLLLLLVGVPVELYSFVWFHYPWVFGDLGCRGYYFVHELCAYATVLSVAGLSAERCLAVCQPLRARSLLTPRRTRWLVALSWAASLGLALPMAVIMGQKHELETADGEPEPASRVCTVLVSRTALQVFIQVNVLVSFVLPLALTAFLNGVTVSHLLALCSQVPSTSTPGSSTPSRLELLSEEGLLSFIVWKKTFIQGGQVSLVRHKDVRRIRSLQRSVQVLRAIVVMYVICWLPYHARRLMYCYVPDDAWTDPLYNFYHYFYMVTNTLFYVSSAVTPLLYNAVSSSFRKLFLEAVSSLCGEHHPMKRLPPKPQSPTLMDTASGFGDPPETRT
Where a SMILES comes first, the peptide text is derived from it. [ ]: non-standard residue; d: D form. Orn = NCCC[C@H](N)C(=O)O
recordedMetric: Kd
Note to self: number, then unit, no commentary.

Example molecules with recorded Kd:
INPUT: Report value only: Kd, hNTS2 (Homo sapiens, UniProt O95665), CC[C@H](C)[C@H](NC(=O)[C@H](Cc1ccc2ccccc2c1)NC(=O)[C@@H]1CCCN1C(=O)[C@H](CCCNC(=N)N)NC(=O)[C@@H](N)CCCNC(=N)N)C(=O)N[C@@H](CC(C)C)C(=O)O [NT33, [L-3,2-Nal^11]NT(8-13)]
OUTPUT: 18 nM

INPUT: Report value only: Kd, hNTS2 (Homo sapiens, UniProt O95665), CC[C@H](C)[C@H](NC(=O)[C@@H](Cc1ccc(O)cc1)NC(=O)[C@@H]1CCCN1C(=O)[C@H](CCCN)NC(=O)[C@@H](N)CCCNC(=N)N)C(=O)N[C@@H](CC(C)C)C(=O)O [NT36, [L-Orn^9,D-Tyr^11]NT(8-13)] (H-R[Orn]P[dY]IL-OH; N-terminus and C-terminus assumed)
OUTPUT: 1160 nM

INPUT: Report value only: Kd, hNTS2 (Homo sapiens, UniProt O95665), CC[C@H](C)[C@H](NC(=O)[C@H]1Cc2ccccc2CN1C(=O)[C@@H]1CCCN1C(=O)[C@H](CCCNC(=N)N)NC(=O)[C@@H](N)CCCNC(=N)N)C(=O)N[C@@H](CC(C)C)C(=O)O [NT48, [D-TIC^11]NT(8-13)]
OUTPUT: 255 nM

Please examine the following record next.
INPUT: Report value only: Kd, hNTS2 (Homo sapiens, UniProt O95665), CC[C@H](C)[C@H](NC(=O)[C@H](Cc1ccc(O)cc1)NC(=O)[C@@H]1CCCN1C(=O)[C@@H](N)CCCN)C(=O)N[C@@H](CC(C)C)C(=O)O [NT34, [L-Orn^9]NT(9-13)] (H-[Orn]PYIL-OH; N-terminus and C-terminus assumed)
OUTPUT: 1190 nM
